Tested on: CHO-K1
experiment description: Cytotoxicity against CHO-K1 cells assessed as reduction in cell viability at 10 uM incubated for 48 hrs by resazurin reagent based fluorescence assay
Design: species or system Cricetulus griseus
run conditions: chinese hamster, cho-k1, 48 h
endpoint label: Activity

compound structure string: COc1ccc(/C=C/c2cc(/C=C/c3ccc(OC)cc3)nc(OCCCCBr)n2)cc1
endpoint label: Activity
obs value: Non-Toxic

compound structure string: COc1ccc(/C=C/c2cc(/C=C/c3ccc(OC)c(OC)c3)nc(OCCCCSC(N(C)C)=[N+](C)C)n2)cc1OC.[Br-]
endpoint label: Activity
obs value: Non-Toxic

compound structure string: Br.COc1ccc(/C=C/c2cc(/C=C/c3ccc(OC)c(OC)c3)nc(OCCCCSC(=N)N)n2)cc1OC
endpoint label: Activity
obs value: Toxic

compound structure string: Br.COc1ccc(/C=C/c2cc(/C=C/c3ccc(OC)cc3)nc(OCCCCSC(=N)N)n2)cc1
endpoint label: Activity
obs value: Toxic

compound structure string: COc1ccc(/C=C/c2cc(/C=C/c3ccc(OC)cc3)nc(OCCCCSC(N(C)C)=[N+](C)C)n2)cc1.[Br-]
endpoint label: Activity
obs value: Non-Toxic

compound structure string: COc1ccc(/C=C/c2cc(/C=C/c3ccc(OC)c(OC)c3)nc(OCCCCBr)n2)cc1OC
endpoint label: Activity
obs value: Toxic

* * *

System: CHO
experiment description: Cytotoxicity against CHO cells overexpressing 3-O-sulfotransferase 2 assessed as reduction in cell viability at 10 uM incubated for 48 hrs by resazurin reagent based fluorescence assay
Design: species or system Cricetulus griseus
run conditions: chinese hamster

compound structure string: COc1ccc(/C=C/c2cc(/C=C/c3ccc(OC)c(OC)c3)nc(OCCCCBr)n2)cc1OC
measurement target: CHO
Activity: Toxic
//
compound structure string: COc1ccc(/C=C/c2cc(/C=C/c3ccc(OC)c(OC)c3)nc(OCCCCSC(N(C)C)=[N+](C)C)n2)cc1OC.[Br-]
measurement target: CHO
Activity: Non-Toxic
//
compound structure string: COc1ccc(/C=C/c2cc(/C=C/c3ccc(OC)cc3)nc(OCCCCSC(N(C)C)=[N+](C)C)n2)cc1.[Br-]
measurement target: CHO
Activity: Non-Toxic
//
compound structure string: COc1ccc(/C=C/c2cc(/C=C/c3ccc(OC)cc3)nc(OCCCCBr)n2)cc1
measurement target: CHO
Activity: Non-Toxic
//
compound structure string: Br.COc1ccc(/C=C/c2cc(/C=C/c3ccc(OC)cc3)nc(OCCCCSC(=N)N)n2)cc1
measurement target: CHO
Activity: Toxic
//
compound structure string: Br.COc1ccc(/C=C/c2cc(/C=C/c3ccc(OC)c(OC)c3)nc(OCCCCSC(=N)N)n2)cc1OC
measurement target: CHO
Activity: Toxic

* * *

System: CHO
experiment description: Cytotoxicity against CHO cells overexpressing 3-O-sulfotransferase 4 assessed as reduction in cell viability at 10 uM incubated for 48 hrs by resazurin reagent based fluorescence assay
Set-up: species or system Cricetulus griseus
run conditions: chinese hamster
endpoint label: Activity

compound structure string: Br.COc1ccc(/C=C/c2cc(/C=C/c3ccc(OC)cc3)nc(OCCCCSC(=N)N)n2)cc1
obs value: Toxic
//
compound structure string: COc1ccc(/C=C/c2cc(/C=C/c3ccc(OC)c(OC)c3)nc(OCCCCSC(N(C)C)=[N+](C)C)n2)cc1OC.[Br-]
obs value: Non-Toxic
//
compound structure string: COc1ccc(/C=C/c2cc(/C=C/c3ccc(OC)c(OC)c3)nc(OCCCCBr)n2)cc1OC
obs value: Toxic
//
compound structure string: COc1ccc(/C=C/c2cc(/C=C/c3ccc(OC)cc3)nc(OCCCCSC(N(C)C)=[N+](C)C)n2)cc1.[Br-]
obs value: Non-Toxic
//
compound structure string: COc1ccc(/C=C/c2cc(/C=C/c3ccc(OC)cc3)nc(OCCCCBr)n2)cc1
obs value: Non-Toxic
//
compound structure string: Br.COc1ccc(/C=C/c2cc(/C=C/c3ccc(OC)c(OC)c3)nc(OCCCCSC(=N)N)n2)cc1OC
obs value: Toxic
